Data origin: patent US20050064507A1

target: PKC-delta (Homo sapiens); construct: purchased Calbiochem; assay: In vitro kinase assay: peptide phosphorylation by PKC-delta; format: biochemical; details: PKC-delta
reported metric: phosphorylation in the in vitro validating assay

9 (QKKSRLRRRASQLKI) [compound 9]; highly phosphorylated
7 (RKIPKRPGSVHRTPSRQ) [compound 7]; highly phosphorylated
4 (KFARKSTRRSIRLPE) [compound 4]; highly phosphorylated
66 (GFAKKIGSGQKTWTF) [compound 66]; poorly phosphorylated
69 (LALTARESSVRSGGAG) [compound 69]; poorly phosphorylated
64 (ALRAPKPTLRYFTTERF) [compound 64]; poorly phosphorylated
11 (KKKFRTPSFLKKSKK) [compound 11]; highly phosphorylated
60 (LRRKHLGTLNFGGIR) [compound 60]; poorly phosphorylated

---

Biological target: PKC-delta (Homo sapiens, UniProt Q05655)
Construct: purchased Calbiochem
Sequence (Q05655 whole entry): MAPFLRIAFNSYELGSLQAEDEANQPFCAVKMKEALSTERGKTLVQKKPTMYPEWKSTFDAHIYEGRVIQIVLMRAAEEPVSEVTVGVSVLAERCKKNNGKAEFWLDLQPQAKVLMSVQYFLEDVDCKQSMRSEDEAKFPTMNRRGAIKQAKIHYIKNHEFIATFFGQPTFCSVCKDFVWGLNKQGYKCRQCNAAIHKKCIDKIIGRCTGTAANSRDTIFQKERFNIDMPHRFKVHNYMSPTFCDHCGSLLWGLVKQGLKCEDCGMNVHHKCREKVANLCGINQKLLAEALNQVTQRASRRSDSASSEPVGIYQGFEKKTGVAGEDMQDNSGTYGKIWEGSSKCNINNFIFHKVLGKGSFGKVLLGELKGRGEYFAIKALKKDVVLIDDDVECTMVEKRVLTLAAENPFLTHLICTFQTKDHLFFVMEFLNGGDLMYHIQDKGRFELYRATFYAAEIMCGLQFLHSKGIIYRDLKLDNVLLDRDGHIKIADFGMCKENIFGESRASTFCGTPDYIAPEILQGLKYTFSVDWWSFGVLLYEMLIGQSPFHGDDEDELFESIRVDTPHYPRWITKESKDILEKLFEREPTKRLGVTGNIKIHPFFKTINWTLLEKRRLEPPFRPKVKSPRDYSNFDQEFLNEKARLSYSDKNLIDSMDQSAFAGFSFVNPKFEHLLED
Assay: In vitro kinase assay: peptide phosphorylation by PKC-delta
Format: biochemical
Details: peptide concentration 1 uM
Procedure: One approach to validating a substrate identification method can involve, for example, comparison of substrate sites predicted by the method with in vitro phosphorylation results obtained using the selected kinase and peptides of known sequences. […] Table 2 compares the present predictions with actual measurements of phosphorylation on validating peptides. […] In vitro phosphorylation of these validating peptides was measured in the manner described herein. […]
Decide using phosphorylation by PKC-delta alone. Strictly below 30: Yes. Equal to or above 30: No.

120 (AKRRRLSSLRASTSK) [compound 120]; No
132 (GFLNEPLSSKSQRRKSLKLK) [compound 132]; No
148 (RELEQLKAEYLERRASRRRA) [compound 148]; Yes
151 (PQNSLKASNRKKKRTSFKRK) [compound 151]; Yes
156 (SAQITIPKDGQKRKKSLRKK) [compound 156]; Yes
153 (TYLLPDKSRQGKRKTSIKRD) [compound 153]; No
140 (TELEGGFSRQRKRKLSFRRR) [compound 140]; No

---

target: PKC-theta (Homo sapiens); construct: His-tag; made in house; host or cells: baculovirus-infected Sf9 cells; test: In vitro kinase assay: peptide phosphorylation by PKC-theta; type: biochemical; details: normalized to best substrate
Decision: PKC theta phosphorylation >= 40% yields True, all other cases yield False.

77 (KKKKRASFKRKSSKKG) [compound 77]; True
96 (RGFLRSASLGRRASFHLE) [compound 96]; False
95 (KKKFRTPSFLKKSKK) [compound 95]; True
86 (RQRKRKLSFRRRTDKD) [compound 86]; False
100 (WKGKRRSKARKKRK) [compound 100]; True
105 (ALRRPSLRREADD) [compound 105]; False
80 (KKKKKRFSFKKSFKL) [compound 80]; True
88 (KKPFKLSGLSFKRNRKE) [compound 88]; False
78 (KFARKSTRRSIRLPE) [compound 78]; True
92 (DGQKRKKSLRKKLD) [compound 92]; True
94 (KLAVGRHSFSRRSGV) [compound 94]; True
90 (AQIVKRASLKRGKQ) [compound 90]; False

---

target: PKC-delta (Homo sapiens, UniProt Q05655); construct: purchased Calbiochem; experiment: In vitro kinase assay: peptide phosphorylation by PKC-delta; format: biochemical; conditions: peptide concentration of 10 nM; percentage of phosphorylation of the best validating peptide substrate
reported metric: Measured in vitro phosphorylation by PKC-delta (%)

46 (GQAWGRQSPRRLED) [compound 46]; 2
48 (AVNSRRRAGQKKK) [compound 48]; 2
65 (IKVTHKATGKVMVMK) [compound 65]; 1
9 (QKKSRLRRRASQLKI) [compound 9]; 34
18 (KKRFSFKKSFKLSGFSFKKN) [compound 18]; 16
59 (PVNKRSKYTMMK) [compound 59]; 1

---

Each record here notes measured phosphorylation by PKC theta.
molecular target: PKC-theta (Homo sapiens, UniProt Q04759); construct: His-tag; made in house; host or cells: baculovirus-infected Sf9 cells; experiment: In vitro kinase assay: peptide phosphorylation by PKC-theta; assay type: biochemical; settings: peptide concentration 1 uM
Sequence (Q04759 whole entry): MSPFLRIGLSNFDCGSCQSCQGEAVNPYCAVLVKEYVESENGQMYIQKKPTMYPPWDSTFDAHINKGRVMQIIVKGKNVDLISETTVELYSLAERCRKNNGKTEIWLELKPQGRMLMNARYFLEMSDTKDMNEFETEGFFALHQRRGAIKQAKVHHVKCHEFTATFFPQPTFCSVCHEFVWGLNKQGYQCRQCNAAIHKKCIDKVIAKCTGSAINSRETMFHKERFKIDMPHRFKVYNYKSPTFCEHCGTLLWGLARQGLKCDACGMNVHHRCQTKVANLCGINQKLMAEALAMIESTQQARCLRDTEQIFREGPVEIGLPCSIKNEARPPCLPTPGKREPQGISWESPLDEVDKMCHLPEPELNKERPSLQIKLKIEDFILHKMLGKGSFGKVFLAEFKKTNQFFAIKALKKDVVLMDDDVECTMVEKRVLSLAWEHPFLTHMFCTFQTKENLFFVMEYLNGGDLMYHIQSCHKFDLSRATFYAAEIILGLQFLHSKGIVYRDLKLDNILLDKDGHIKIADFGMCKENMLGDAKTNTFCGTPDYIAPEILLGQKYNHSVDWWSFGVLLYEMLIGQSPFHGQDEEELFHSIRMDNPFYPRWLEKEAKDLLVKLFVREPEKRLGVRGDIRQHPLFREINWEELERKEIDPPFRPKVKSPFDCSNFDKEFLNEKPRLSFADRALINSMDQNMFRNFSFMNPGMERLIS
reported metric: phosphorylation by PKC theta

140 (TELEGGFSRQRKRKLSFRRR) [compound 140]; 25
146 (QAQRQIKRGAPPRRSSIRNA) [compound 146]; 33
139 (RPTPGDGEKRSRIKKSKKRK) [compound 139]; 31
165 (TEEKSKKRKKKHRKNSRKHK) [compound 165]; 16
164 (TEGKMARVAWKGKRRSKARK) [compound 164]; 24
158 (VQMTWSYPDEKNKRASVRRR) [compound 158]; 19
134 (RSRSRSRSKSKDKRKSRKRS) [compound 134]; 36
123 (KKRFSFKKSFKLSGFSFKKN) [compound 123]; 47

---

Each record here notes measured phosphorylation by PKC-delta.
Target: PKC-delta (Homo sapiens, UniProt Q05655)
Construct: purchased Calbiochem
Assay: In vitro kinase assay: peptide phosphorylation by PKC-delta
Format: biochemical
Conditions: peptide concentration 1 uM
Description: One approach to validating a substrate identification method can involve, for example, comparison of substrate sites predicted by the method with in vitro phosphorylation results obtained using the selected kinase and peptides of known sequences. […] Table 2 compares the present predictions with actual measurements of phosphorylation on validating peptides. […] In vitro phosphorylation of these validating peptides was measured in the manner described herein. […]
reported metric: phosphorylation by PKC-delta

138 (EYLERRASRRRAV) [compound 138]; 49
161 (KYKAFIRIPIPTRRHTFRRQ) [compound 161]; 22
154 (KKFFTQGWAGWRKKTSFRKP) [compound 154]; 26
128 (QQVDRERPHVRRRRGTFKRS) [compound 128]; 46
126 (KAIKAIEGGQKFARKSTRRS) [compound 126]; 47
149 (RVVQSVKHTKRKSSTVMK) [compound 149]; 20
155 (RWDKRRWRKIPKRPGSVHRT) [compound 155]; 30
115 (NRKKKRTSFKRKA) [compound 115]; 94
146 (QAQRQIKRGAPPRRSSIRNA) [compound 146]; 33
158 (VQMTWSYPDEKNKRASVRRR) [compound 158]; 18
137 (PSKSPSKKKKKFRTPSFLKK) [compound 137]; 38
136 (RARRDSLKKIEIW) [compound 136]; 41
145 (ISDFGLAKKLAVGRHSFSRR) [compound 145]; 34
143 (VRYTPYTISPYNRKGSFRKQ) [compound 143]; 33
152 (DLIEGRKGAQIVKRASLKRG) [compound 152]; 35
144 (LSSMFGTLPRKSRKGSVRKQ) [compound 144]; 35
135 (KKKFRTPSFLKKSKK) [compound 135]; 40
121 (LRRRSLRRSNSISKSPGP) [compound 121]; 80
162 (KKKFSFKKPFKLSGLSFKRN) [compound 162]; 21
167 (GLPAPGEDKSIYRRGSRRWR) [compound 167]; 13
122 (RAITSTLASSFKRRR) [compound 122]; 55
116 (EEGTFRSSIRRLSTRRR) [compound 116]; 75
130 (EYLERRASRRRAV) [compound 130]; 46
119 (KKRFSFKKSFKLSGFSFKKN) [compound 119]; 42
147 (RDIRQSPKRGFLRSASLGRR) [compound 147]; 27
125 (PLKEKKRERKTSSKSSVRKR) [compound 125]; 46
129 (VQRHRSMRKTFARYLSFRRD) [compound 129]; 32
139 (RPTPGDGEKRSRIKKSKKRK) [compound 139]; 31
117 (NRKKKRTSFKRKA) [compound 117]; 100
157 (PSPSNETPKKKKKRFSFKKS) [compound 157]; 27
127 (SQVQKQRSAGSFKRNSIKKI) [compound 127]; 52
164 (TEGKMARVAWKGKRRSKARK) [compound 164]; 18
134 (RSRSRSRSKSKDKRKSRKRS) [compound 134]; 44
142 (ERHVAQKKSRLRRRASQLKI) [compound 142]; 30
160 (PFEVVWYKDKRQLRSSKKYK) [compound 160]; 25
123 (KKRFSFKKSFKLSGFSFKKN) [compound 123]; 45
114 (KKKKRASFKRKSSKKG) [compound 114]; 80
124 (PRLIRRGSKKRPAR) [compound 124]; 69
133 (LEKRGMLGKRPRRKSSRRKK) [compound 133]; 46
141 (VTDSQKRREILSRRPSYRKI) [compound 141]; 43
163 (PPRTPGWHQLQPRRVSFRGE) [compound 163]; 13
150 (VDPFYEMLAARKKRISVKKK) [compound 150]; 34
118 (RPQNTLKASKKKKRASFKRK) [compound 118]; 73
159 (LYARLARAYRRSQRASFKRA) [compound 159]; 15
166 (MAQIERGEARIQRRISIKKA) [compound 166]; 13
131 (WKGKRRSKARKKRK) [compound 131]; 38
165 (TEEKSKKRKKKHRKNSRKHK) [compound 165]; 25
